target: Protein FosB (Mus musculus); test: activators of delta FosB homodimer, primary screen, biochemical, fluorescence polarization, TAMRA-CDK5 oligo, single point (AID 493131); conditions: purified delta FosB, at 25 µM, percent of positive-control signal above neutral wells;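 note: fluorescence polarization rise as delta FosB binds a TAMRA Cdk5 AP-1 oligo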
The campaign covered roughly 340,000 compounds. About 3,300 (0.97%) were called active.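 Rule for the calls: active = mean activation above about 17%, with every replicate also reaching it (limit read from the data, passing the limit was not always enough); inconclusive = only one of the two conditions met; inactive = the rest.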 The sample as a whole holds a higher share of actives than the screen did.
Classes used: TRUE = active, FALSE = inactive

In [3]: df
Out[3]:
                            substancesmiles  labelclass
0  COc1ccc(N(CC(=O)N/N=C/c2cccc3c2OCCO3)S(=O)(=O)c2ccc(NC(C)=O)cc2)cc1       FALSE
1  CCC(=O)NC(Nc1cc(C)ccn1)(C(F)(F)F)C(F)(F)F       FALSE
2  O=C(N/N=C/c1ccc(OCc2ccccc2)cc1)c1ccc(O)cc1        TRUE
3  CC(=O)c1cccc(NC(=O)c2cc(C)nn2-c2ccccc2)c1       FALSE
4  COc1cccc(OCc2cc(/C=N/NC(=O)c3nc(Cl)c(Cl)c(N)c3Cl)ccc2OC)c1        TRUE
